Data origin: patent US20250152585A1

system-tested: N-terminally FLAG-tagged PARP2 (amino acids 1-583) (Homo sapiens, UniProt Q9UGN5)
Construct: N-terminally FLAG-tagged PARP2 (amino acids 1-583)
Sequence (Q9UGN5 whole entry, the tested form may be a part): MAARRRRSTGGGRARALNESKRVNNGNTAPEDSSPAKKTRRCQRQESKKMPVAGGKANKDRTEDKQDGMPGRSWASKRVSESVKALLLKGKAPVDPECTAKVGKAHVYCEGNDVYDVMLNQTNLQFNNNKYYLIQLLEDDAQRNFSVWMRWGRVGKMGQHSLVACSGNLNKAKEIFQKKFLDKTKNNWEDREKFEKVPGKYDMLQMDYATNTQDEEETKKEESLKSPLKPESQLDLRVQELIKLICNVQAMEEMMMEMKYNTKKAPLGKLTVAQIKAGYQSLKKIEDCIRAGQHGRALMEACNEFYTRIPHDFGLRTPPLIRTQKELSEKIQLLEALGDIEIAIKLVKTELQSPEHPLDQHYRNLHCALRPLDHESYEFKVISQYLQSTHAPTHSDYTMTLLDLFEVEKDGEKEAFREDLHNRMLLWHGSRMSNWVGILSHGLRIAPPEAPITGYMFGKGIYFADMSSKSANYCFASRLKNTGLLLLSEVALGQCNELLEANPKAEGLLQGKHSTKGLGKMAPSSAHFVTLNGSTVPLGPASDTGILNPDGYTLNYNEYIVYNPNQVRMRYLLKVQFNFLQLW
procedure-summary: PARP2 probe displacement HTRF assay
Format: binding
reported-conditions: binned Kd, probe displacement HTRF
pKd: −log10 of the molar value.
metric-name: pKd

Solved entries:
| compound | pKd |
| --- | --- |
| CNC(=O)c1ccc(N2CCC(N3CC4(c5nc6c(c(=O)[nH]5)CCCC6)CC3C4)CC2)c(F)n1 | 6.00 to 7.00 |
| N#Cc1ccc(N2CCC(N3CCC(c4cc5cccc(F)c5c(=O)[nH]4)C3)CC2)c(Cl)c1 (single isomer, unassigned) [Compound 378a] | 6.00 to 7.00 |
| CNC(=O)c1ccc(N2CCC(N3CCC(c4cc5ccccc5c(=O)[nH]4)C3)CC2)s1 (racemic) | 5.00 to 6.00 |
| CNC(=O)c1cc(C(F)(F)F)c(N2CCC(N3CCC(c4cc5cccc(F)c5c(=O)[nH]4)C3)CC2)cn1 (single isomer, unassigned) [Compound 308b] | 6.00 to 7.00 |
| CNC(=O)c1ccc(N2CCC(N3CCC(c4cc5ccc(F)cc5c(=O)[nH]4)C3)CC2)c(Cl)n1 (single isomer, unassigned) [Compound 223b] | 6.00 to 7.00 |

Task: What does the data say about its pKd? Entry: CNC(=O)c1ccc(N2CCC(N3CCC(c4cc5ncc(F)cc5c(=O)[nH]4)C3)CC2)cn1 (single isomer, unassigned) [Compound 315a]
Output: 6.00 to 7.00

Task: pKd for CNC(=O)c1ccc(N2CCC(N3CC4(c5nc6cccc(F)c6c(=O)[nH]5)CC3C4)CC2)c(F)n1 ?
Output: 5.00 to 6.00

----------
system-tested: full length N-terminally FLAG-tagged PARP1 (Homo sapiens, UniProt P09874)
Sequence (P09874 whole entry): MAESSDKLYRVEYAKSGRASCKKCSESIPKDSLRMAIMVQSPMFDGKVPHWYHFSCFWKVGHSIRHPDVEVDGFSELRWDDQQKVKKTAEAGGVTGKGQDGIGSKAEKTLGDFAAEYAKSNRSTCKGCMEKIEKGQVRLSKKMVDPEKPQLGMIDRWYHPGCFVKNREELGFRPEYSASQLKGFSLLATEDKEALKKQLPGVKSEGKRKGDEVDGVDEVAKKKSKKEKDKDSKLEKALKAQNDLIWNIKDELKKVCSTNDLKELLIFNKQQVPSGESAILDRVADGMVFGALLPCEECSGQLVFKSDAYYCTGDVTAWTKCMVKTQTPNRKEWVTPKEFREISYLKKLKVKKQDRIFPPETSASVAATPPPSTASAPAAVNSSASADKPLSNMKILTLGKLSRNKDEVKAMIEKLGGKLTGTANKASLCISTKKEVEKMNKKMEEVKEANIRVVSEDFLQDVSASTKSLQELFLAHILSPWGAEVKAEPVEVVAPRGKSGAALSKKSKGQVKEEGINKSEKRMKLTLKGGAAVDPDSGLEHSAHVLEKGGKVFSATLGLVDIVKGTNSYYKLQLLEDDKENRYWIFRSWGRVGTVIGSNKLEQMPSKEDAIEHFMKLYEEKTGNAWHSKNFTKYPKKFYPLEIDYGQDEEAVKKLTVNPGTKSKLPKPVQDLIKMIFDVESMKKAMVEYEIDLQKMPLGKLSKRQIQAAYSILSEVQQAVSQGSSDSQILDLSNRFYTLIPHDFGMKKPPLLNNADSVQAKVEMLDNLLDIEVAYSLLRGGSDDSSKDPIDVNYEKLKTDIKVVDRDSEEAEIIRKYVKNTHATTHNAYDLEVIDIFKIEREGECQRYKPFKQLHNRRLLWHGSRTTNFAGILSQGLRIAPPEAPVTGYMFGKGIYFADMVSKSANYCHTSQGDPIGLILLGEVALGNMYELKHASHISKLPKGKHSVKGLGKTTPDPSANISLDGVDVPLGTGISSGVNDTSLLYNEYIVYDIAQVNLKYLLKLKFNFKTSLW
procedure-summary: PARP1 probe displacement HTRF assay
reported-conditions: read-out: PARP1 HTRF; binned Kd, PARP1 probe displacement HTRF
metric-name: Kd

| compound | system-tested | Kd |
| --- | --- | --- |
| O=C(NCC(F)(F)F)c1ccc(N2CCC(N3CCC(c4nc5ccccc5c(=O)[nH]4)C3)CC2)cn1 (single isomer, unassigned) [Compound 130a] | full length N-terminally FLAG-tagged PARP1 (Homo sapiens, UniProt P09874) | < 10 nM |
| CNC(=O)c1ccc(N2CCC(N3CCC(c4nc5ccccc5c(=O)[nH]4)C3)CC2)c(C(F)(F)F)n1 (single isomer, unassigned) [Compound 139b] | full length N-terminally FLAG-tagged PARP1 (Homo sapiens, UniProt P09874) | 10 to 100 nM |

Continue with the next compound.
Task: Quick check: Kd of CNC(=O)c1ccc(N2CCC(CN3CCCC(c4nc5ccccc5c(=O)[nH]4)C3)CC2)cn1 (single isomer, unassigned) [Compound 9b] ?
Output: 10 to 100 nM

----------
Property: IC50; scope: individual compounds
system-tested: UniProtKB P09874
procedure-summary: PARP1 biochemical DELFIA assay (auto-PARylation)
Design: recombinant full length human N-terminally FLAG-tagged PARP1
reported-conditions: binned IC50, PARP1 biochemical DELFIA assay

| compound | system-tested | measured-value |
| --- | --- | --- |
| CCc1ccc(C2CCN(C3CCN(c4ccc(C(=O)NC)nc4)CC3)C2)[nH]c1=O (single isomer, unassigned) [Compound 72b] | UniProtKB P09874 | < 10 nM |
| CNC(=O)c1ccc(N2CCC(N3CCCC(c4ccc(OC)c(=O)[nH]4)C3)CC2)cn1 (single isomer, unassigned) [Compound 147a] | UniProtKB P09874 | 1000 to 10000 nM |
| CNC(=O)c1ccc(OCCN2CCCC(c3nc4ccccc4c(=O)[nH]3)C2)cn1 (single isomer, unassigned) [Compound 65b] | UniProtKB P09874 | 100 to 1000 nM |
| CNC(=O)c1ccc(N2CCC(N3CCCC(c4nc5ncccc5c(=O)[nH]4)C3)CC2)cn1 (single isomer, unassigned) [Compound 98a] | UniProtKB P09874 | 10 to 100 nM |
| CNC(=O)c1ccc(N2CCC(N3CCC(c4ccc(COC)c(=O)[nH]4)C3)CC2)cn1 (single isomer, unassigned) [Compound 207b] | UniProtKB P09874 | 100 to 1000 nM |
| CNC(=O)c1ccc(F)c(N2CCC(N3CCC(c4nc5ccccc5c(=O)[nH]4)C3)CC2)n1 (racemic) | UniProtKB P09874 | 100 to 1000 nM |

Task: Requested field: IC50. Item: CNC(=O)c1ccc(N2CCC(N3CCC(c4nc5c(c(=O)[nH]4)CCCN5)C3)CC2)cn1 (single isomer, unassigned) [Compound 214b]
Output: < 10 nM

Task: For the compound shown here, CNC(=O)c1ccc(N2CCC(N3CCC(c4ncc(C)c(=O)[nH]4)C3)CC2)cn1 (single isomer, unassigned) [Compound 35a] , give the reported IC50.
Output: 100 to 1000 nM

Task: Query: IC50; subject: CNC(=O)c1ccc(N2CCC(N3CCCC(c4nc5ccccc5c(=O)[nH]4)C3)CC2)cn1 (single isomer, unassigned) [Compound 6b]
Output: 100 to 1000 nM

Task: Fill in: IC50 of CNC(=O)c1ccc(OCCCN2CCCC(c3nc4ccccc4c(=O)[nH]3)C2)cn1 (single isomer, unassigned) [Compound 7a] is ___
Output: 10 to 100 nM

Task: What value of IC50 has been reported for the following compound? CCc1ccc(C2CCN(C3CCN(c4ccc(C(=O)NCCOC)nc4)CC3)C2)[nH]c1=O (racemic)
Output: < 10 nM

Task: IC50 lookup needed for CNC(=O)c1ccc(N2CCC(N3CCCC(c4nc5ccccc5c(=O)[nH]4)C3)CC2)c(Cl)n1 (single isomer, unassigned) [Compound 94a] , thanks.
Output: 10 to 100 nM

Task: Which value of IC50 has been reported for CCc1cnc(-c2cnn(C3CCN(c4ccc(C(=O)NC)nc4)CC3)c2)[nH]c1=O in the records?
Output: 10 to 100 nM

Task: // query IC50 value for entry CNC(=O)c1ccc(N2CCC(CN3CC4(c5nc6ccccc6c(=O)[nH]5)CC3C4)CC2)cn1
Output: 10 to 100 nM

Task: Reported IC50 for CCc1cnc(C2CCCN(C3CCN(c4ccc(C(=O)NC)nc4)CC3)C2)[nH]c1=O (single isomer, unassigned) [Compound 31a] : what is it?
Output: 1000 to 10000 nM

Task: Param item = O=c1[nH]c(C2CCN(C3CCN(c4ccc(F)cc4F)CC3)C2)nc2ccccc12 (single isomer, unassigned) [Compound 107b] ; retrieve measured IC50.
Output: 100 to 1000 nM

Task: # IC50 lookup, item CNC(=O)c1ccc(N2CCC(N3CCCC(c4nc5ccccc5c(=O)[nH]4)C3)CC2)c(C)n1 (stereo not shown) [Compound 131]
Output: 1000 to 10000 nM

Task: Fill in: IC50 of CNC(=O)c1ccc(N2CCC(N3CCC(c4cc5ccc(F)cc5c(=O)[nH]4)C3)CC2)c(F)n1 (single isomer, unassigned) [Compound 174a] is ___
Output: < 10 nM

----------
system-tested: full length N-terminally FLAG-tagged PARP1 (Homo sapiens)
procedure-summary: PARP1 biochemical DELFIA assay (auto-PARylation)
Parameters: recombinant full length human N-terminally FLAG-tagged PARP1
reported-conditions: binned IC50, PARP1 biochemical DELFIA assay
pIC50: −log10 of the molar value.
metric-name: pIC50

| compound | pIC50 |
| --- | --- |
| CNC(=O)c1ccc(N2CCC(N3CCC(c4nc5ccccc5c(=O)[nH]4)C3)CC2)c(Cl)n1 (racemic) | > 8.00 |

Task: Reported pIC50 for CCc1ccc(C2CCN(C3CCN(c4ccc(C(=O)NC)nc4C(F)F)CC3)C2)[nH]c1=O (single isomer, unassigned) [Compound 164a] : what is it?
Output: > 8.00

Task: Would you mind telling me what pIC50 value was observed for CNC(=O)c1ccc(N2CCC(N3CCC(c4nc5ccc(Cl)cc5c(=O)[nH]4)C3)CC2)cn1 (single isomer, unassigned) [Compound 68b] ?
Output: 7.00 to 8.00

Task: // returns reported pIC50 for input CCc1ccc(C2CCN(C3CCN(c4ccc(C(=O)NCCF)nc4)CC3)C2)[nH]c1=O (single isomer, unassigned) [Compound 165b]
Output: 7.00 to 8.00

Task: Which value of pIC50 has been reported for CNC(=O)c1ccc(N2CCC(N3CCCC(c4cc5ccccc5c(=O)[nH]4)C3)CC2)cn1 (single isomer, unassigned) [Compound 100a] in the records?
Output: > 8.00

Task: So what does the record say about pIC50 for CCc1cnc(C2CCCN(C3CCC(F)(F)CC3)C2)[nH]c1=O (single isomer, unassigned) [Compound 24a] ?
Output: 5.00 to 6.00
